pIC50: −log10 of the molar value.
Entries below carry reported pIC50 on cGMP-dependent protein kinase (Eimeria tenella, UniProt Q8MMZ8).
Sequence (Q8MMZ8 whole entry): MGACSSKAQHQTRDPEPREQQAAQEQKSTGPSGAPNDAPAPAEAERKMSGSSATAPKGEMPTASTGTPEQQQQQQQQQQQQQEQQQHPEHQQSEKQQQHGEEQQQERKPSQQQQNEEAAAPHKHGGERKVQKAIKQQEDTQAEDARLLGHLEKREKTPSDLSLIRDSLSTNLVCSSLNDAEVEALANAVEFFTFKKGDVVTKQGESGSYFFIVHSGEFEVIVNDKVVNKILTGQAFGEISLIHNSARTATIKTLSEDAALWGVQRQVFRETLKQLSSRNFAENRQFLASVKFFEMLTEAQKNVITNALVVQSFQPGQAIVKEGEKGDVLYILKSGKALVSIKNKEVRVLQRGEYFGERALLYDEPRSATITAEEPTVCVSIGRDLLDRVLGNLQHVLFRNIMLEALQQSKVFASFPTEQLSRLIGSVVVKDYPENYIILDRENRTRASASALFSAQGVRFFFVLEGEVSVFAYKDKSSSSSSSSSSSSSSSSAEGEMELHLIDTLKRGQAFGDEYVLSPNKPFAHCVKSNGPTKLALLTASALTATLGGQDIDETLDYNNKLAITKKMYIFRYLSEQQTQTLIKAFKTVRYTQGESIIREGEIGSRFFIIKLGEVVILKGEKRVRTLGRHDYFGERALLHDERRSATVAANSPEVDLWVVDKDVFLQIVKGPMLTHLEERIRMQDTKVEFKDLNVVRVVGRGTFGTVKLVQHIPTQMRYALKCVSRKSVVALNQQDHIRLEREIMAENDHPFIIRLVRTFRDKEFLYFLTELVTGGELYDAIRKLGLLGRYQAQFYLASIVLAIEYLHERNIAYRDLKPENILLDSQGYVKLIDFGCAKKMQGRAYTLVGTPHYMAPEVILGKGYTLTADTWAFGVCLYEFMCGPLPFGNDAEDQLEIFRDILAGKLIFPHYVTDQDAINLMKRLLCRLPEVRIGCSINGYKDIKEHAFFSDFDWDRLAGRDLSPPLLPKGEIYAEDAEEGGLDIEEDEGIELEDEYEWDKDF

>  <molecule>
CC(C)(C)NCc1ccn2c(-c3ccnc(N)n3)c(-c3ccc(F)cc3)nc2c1

>  <pIC50>
9.46

$$$$
>  <molecule>
CCC(C)CN1CCC(c2ccn3c(-c4ccnc(N)n4)c(-c4ccc(F)cc4)nc3c2)CC1 (centres undefined)

>  <pIC50>
9.89

$$$$
>  <molecule>
CN(CCO)Cc1ccn2c(-c3ccnc(N)n3)c(-c3ccc(F)cc3)nc2c1

>  <pIC50>
9.40

$$$$
>  <molecule>
CN(C)CC(C)(C)c1ccn2c(-c3ccnc(N)n3)c(-c3ccc(F)cc3)nc2c1

>  <pIC50>
9.70

$$$$
>  <molecule>
CN1CCN(Cc2ccn3c(-c4ccnc(N)n4)c(-c4ccc(F)cc4)nc3c2)CC1

>  <pIC50>
8.66

$$$$
>  <molecule>
CNC(=O)c1ccn2c(-c3ccnc(N)n3)c(-c3ccc(F)cc3)nc2c1

>  <pIC50>
8.51

$$$$
>  <molecule>
CC(C)(CN)c1ccn2c(-c3ccnc(N)n3)c(-c3ccc(F)cc3)nc2c1

>  <pIC50>
9.59

$$$$
>  <molecule>
CC(c1ccn2c(-c3ccnc(N)n3)c(-c3ccc(F)cc3)nc2c1)N(C)C (single isomer, unassigned; enantiomer A)

>  <pIC50>
9.55

$$$$
>  <molecule>
COCCN(C)Cc1ccn2c(-c3ccnc(N)n3)c(-c3ccc(F)cc3)nc2c1

>  <pIC50>
9.59

$$$$

These measurements were taken from ChEMBL document CHEMBL1141668.
